# credit: patent US20250163057A1

tested system: DCN1 (DCUND1) protein PONY domain (Homo sapiens (Human), UniProt Q96GG9)
Sequence (Q96GG9 60-248): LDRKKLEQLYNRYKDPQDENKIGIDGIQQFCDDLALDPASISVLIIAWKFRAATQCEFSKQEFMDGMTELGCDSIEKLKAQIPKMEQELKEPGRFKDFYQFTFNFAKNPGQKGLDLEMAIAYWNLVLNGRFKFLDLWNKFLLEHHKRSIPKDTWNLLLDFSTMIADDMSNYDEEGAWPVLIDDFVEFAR
test protocol: TR-FRET assay, DCN1 binding with FAM-labeled probe
test context: TR FRET IC50 1 hr (nM), 1 hr after treatment with compound
readout kind: IC50

Some molecules with known IC50 results, for comparison:
{"molecule": "CCN1C(=O)[C@@H](NC(=O)c2ccc(F)c(F)c2OC)[C@@H](C2CC2)c2c(C(=O)N3[C@H](C#N)C[C@H]4C[C@H]43)nn(C3CCOCC3)c21", "result": "1000 to 3000 nM"}
{"molecule": "CCN1C(=O)[C@@H](NC(=O)c2cccc(C(F)(F)F)c2)[C@@H](c2ccc(F)cc2)c2c(CN(C#N)CCCCN(C)C)nn(-c3ccccc3)c21 (single isomer, unassigned) [Compound I-249]", "result": "200 to 1000 nM"}
{"molecule": "CCN1C(=O)[C@@H](NC(=O)c2cccc(C(F)(F)F)c2)[C@@H](c2ccc(F)cc2)c2c(C(=O)N3CCC[C@H]3C#N)nn(-c3ccccc3)c21 (racemic) [Compound I-34]", "result": "≤ 200 nM"}

Request: Looking for the measured IC50 of CCN1C(=O)[C@@H](NC(=O)C(C2CC2)C2CC2)[C@@H](C2CC2)c2c(C(=O)N3[C@H](C#N)C[C@H]4C[C@H]43)nn(C3CCOCC3)c21 , can you help?
Result: 1000 to 3000 nM

Request: What about this molecule? CCN1C(=O)[C@@H](NC(=O)CCc2ccccc2)[C@@H](C2CC2)c2c(C(=O)N3[C@H](C#N)C[C@H]4C[C@H]43)nn(C3CCOCC3)c21
Result: 1000 to 3000 nM

Request: What about this molecule? CCN1C(=O)[C@@H](NC(=O)c2c(Cl)cccc2Cl)[C@@H](C2CC2)c2c(C(=O)N3[C@H](C#N)C[C@H]4C[C@H]43)nn(C3CCOCC3)c21
Result: 1000 to 3000 nM

Request: What about this molecule? CCN1C(=O)[C@@H](NC(=O)CC2CCCc3ccccc32)[C@@H](C2CC2)c2c(C(=O)N3[C@H](C#N)C[C@H]4C[C@H]43)nn(C3CCOCC3)c21 (some centres unmarked)
Result: 1000 to 3000 nM

Request: What about this molecule? CCN1C(=O)[C@H](NC(=O)c2cccc(C(F)(F)F)c2)[C@H](C2CC2)c2c(C(=O)N(CC#N)C3CC3)nn(C3CCOCC3)c21
Result: 1000 to 3000 nM

Request: What about this molecule? CCN1C(=O)[C@@H](NC(=O)COc2ccc3c(c2)CCC3)[C@@H](C2CC2)c2c(C(=O)N3[C@H](C#N)C[C@H]4C[C@H]43)nn(C3CCOCC3)c21
Result: 1000 to 3000 nM

Request: What about this molecule? CCN1C(=O)[C@@H](NC(=O)c2nc3c(s2)CN(C)CC3)[C@@H](C2CC2)c2c(C(=O)N3[C@H](C#N)C[C@H]4C[C@H]43)nn(C3CCOCC3)c21
Result: 1000 to 3000 nM

Request: What about this molecule? CCN1C(=O)[C@H](NC(=O)c2cccc(C(F)(F)F)c2)[C@H](c2ccc(F)cc2)c2c(C(=O)N3[C@H](C#N)C[C@H]4C[C@H]43)nn(-c3ccccc3)c21
Result: 1000 to 3000 nM

Request: What about this molecule? CCN1C(=O)[C@@H](NC(=O)c2cccc(C(F)(F)F)c2)[C@@H](c2ccc(F)cc2)c2c(CNC(=O)/C=C/C(=O)NCCO)nn(-c3ccccc3)c21 (racemic)
Result: 1000 to 3000 nM

Request: What about this molecule? CCN1C(=O)[C@@H](NC(=O)c2ccc3nn[nH]c3c2)[C@@H](C2CC2)c2c(C(=O)N3[C@H](C#N)C[C@H]4C[C@H]43)nn(C3CCOCC3)c21
Result: 1000 to 3000 nM

Request: What about this molecule? CCN1C(=O)[C@@H](NC(=O)c2cccc(C(F)(F)F)c2)[C@@H](C2CC2)c2c(C(=O)N3CCOC[C@H]3C#N)nn(-c3ccccc3)c21
Result: 200 to 1000 nM

====

Test system: Cullin-3 (CUL3) neddylation
test protocol: AlphaLISA assay for Cullin-3 (CUL3) neddylation in TF 1 cells
Format: cell-based
test context: Homo sapiens, TF-1, 3 h, 3 hours treatment
readout kind: IC50

Some compounds with known IC50 results, for comparison:
{"compound": "CCN1C(=O)[C@@H](NC(=O)c2cccc(C(F)(F)F)c2)[C@@H](c2ccc(F)cc2)c2c(C(=O)N(CC#N)CC#N)nn(-c3ccccc3)c21", "readout kind": "IC50", "result": "≤ 100 nM"}
{"compound": "C[C@@H](NC#N)c1nn(-c2ccccc2)c2c1[C@H](c1ccc(F)cc1)[C@H](NC(=O)c1cccc(C(F)(F)F)c1)C(=O)N2CCO", "readout kind": "IC50", "result": "≤ 100 nM"}
{"compound": "C=C(CC(=O)NCc1nn(-c2ccccc2)c2c1[C@@H](c1ccc(F)cc1)[C@H](NC(=O)c1cccc(C(F)(F)F)c1)C(=O)N2CC)C(=O)OC", "readout kind": "IC50", "result": "100 to 1000 nM"}
{"compound": "CCN1C(=O)[C@@H](NC(=O)Cc2ccccc2)[C@@H](C2CC2)c2c(C(=O)N3[C@H](C#N)C[C@H]4C[C@H]43)nn(C3CCOCC3)c21", "readout kind": "IC50", "result": "> 1000 nM"}
{"compound": "CCN1C(=O)[C@@H](NC(=O)c2cccc(C(F)(F)F)c2)[C@@H](c2ccc(F)cc2)c2c(C(=O)N(C)[C@@H](C#N)CCO)nn(-c3ccccc3)c21 (relative stereo)", "readout kind": "IC50", "result": "≤ 100 nM"}
{"compound": "CCN1C(=O)[C@@H](NC(=O)c2cccc(C(F)(F)F)c2)[C@@H](c2ccc(F)cc2)c2c([C@@H](CO)NC#N)nn(-c3ccccc3)c21", "readout kind": "IC50", "result": "100 to 1000 nM"}

Request: Looking for the measured IC50 of CCN1C(=O)[C@@H](NC(=O)c2cccc(C(F)(F)F)c2)[C@@H](c2ccc(F)cc2)c2c(C(=O)N3CS(=O)(=O)C[C@H]3C#N)nn(C3CCOCC3)c21 (mixture of isomers) , can you help?
Result: ≤ 100 nM

Request: What about this compound? CCN1C(=O)[C@@H](NC(=O)c2cccc(C(F)(F)F)c2)[C@@H](c2ccc(F)cc2)c2c(CN(C#N)CCCN3CCN(C4COC4)CC3)nn(-c3ccccc3)c21
Result: ≤ 100 nM

Request: What about this compound? CCN1C(=O)[C@@H](NC(=O)c2cccc(C(F)(F)F)c2)[C@@H](c2ccc(F)cn2)c2c([C@@H](C)NC#N)nn(-c3ccccc3)c21
Result: ≤ 100 nM

Request: What about this compound? CCCn1nc(C(=O)N(CC#N)C2CC2)c2c1N(CC)C(=O)[C@@H](NC(=O)c1cccc(C(F)(F)F)c1)[C@H]2c1ccc(F)cc1
Result: ≤ 100 nM

Request: What about this compound? CCCn1nc(C(=O)N(CC#N)C2CC2)c2c1N(CC)C(=O)[C@@H](NC(=O)c1cccc(C(F)(F)F)c1)[C@H]2C1CC1
Result: 100 to 1000 nM

====

Listed here: items and their measured IC50.
tested system: DCN1 (DCUND1) protein PONY domain (Homo sapiens (Human))
test protocol: TR-FRET assay, DCN1 binding with FAM-labeled probe
test context: TR FRET IC50 1 hr (nM), 1 hr after treatment with compound
Experimental: A TR-FRET assay was performed to evaluate the ability of the compounds to bind the DCN-1 protein. The TR-FRET assay was designed following the Scott et al. protocol (Scott et al., Nat Chem Biol. 2017 August; 13(8): 850-857. Doi:10.1038/nchembio.2386). […] The TR-FRET ratio between Tb-DCN1 and the FAM-labeled probe was measured in a 384-well opti-plate (Perkin Elmer) using a plate reader (BMG) at 1, 5, and 24 hrs after treatment with compound (final DMSO concentration of 0.1%).

{"compound": "CCN1C(=O)[C@H](NC(=O)c2cccc(C(F)(F)F)c2)[C@H](c2ccc(F)cc2)c2c(C(=O)N3CCC[C@H]3C#N)nn(-c3cccc(OCCCN4CC5(COC5)C4)c3)c21 (stereo in doubt) [Compound I-293]", "IC50": "≤ 200 nM"}
{"compound": "CCN1C(=O)[C@@H](NC(=O)c2nccc(C(F)(F)F)n2)[C@H](c2ccc(F)cc2)c2c(CC(=O)N(C)CC#N)nn(-c3ccccc3)c21 [Compound I-640]", "IC50": "1000 to 3000 nM"}
{"compound": "CCCn1nc(C(=O)N2CCC[C@H]2C#N)c2c1N(CC)C(=O)[C@H](NC(=O)c1cccc(C(F)(F)F)c1)[C@@H]2c1ccc(F)cc1 [Compound I-479]", "IC50": "1000 to 3000 nM"}

Request: Looking for the measured IC50 of CCN1C(=O)[C@@H](NC(=O)c2cccc(C(F)(F)F)c2)[C@@H](c2ccc(F)cc2)c2c(C(=O)NC3(C#N)CC3)nn(-c3ccccc3)c21 [Compound I-112] , can you help?
Result: 1000 to 3000 nM

Request: What about this compound? CCN1C(=O)[C@@H](NC(=O)c2cccc(C(F)(F)F)c2)[C@@H](C2CC2)c2c(C(=O)N3CCC=C3C#N)nn(C3CCOCC3)c21 [Compound I-437]
Result: 1000 to 3000 nM
